Origin of measurements: PubChem BioAssay (NCATS)

test.target: Thioredoxin reductase 1, cytoplasmic (Rattus norvegicus)
assay.notes: qHTS Assay for Inhibitors of Mammalian Selenoprotein Thioredoxin Reductase 1 (TrxR1) (AID 488773); further: nearly all actives have a fitted effect of over 40% in size
test.settings: purified TrxR1 enzyme activity; inhibition; series mostly up to 57.1 µM
Text: The selenoprotein thioredoxin reductase (TrxR; EC 1.8.1.9) is a FAD containing homodimeric pyridine nucleotide-disulfide oxidoreductase with many cellular roles. Together with NADPH and its prime substrate thioredoxin (Trx), the enzyme forms the core of the Trx system. […] This BioAssay is a validation of an NADPH fluorescence-based, dual-purpose qHTS rTrxR1 assay designed to find potential inhibitors and substrates of rTrxR1. […]
Results filed as inconclusive are left out. The source made the active and inactive calls. The call rests on the fitted dose curve; in most records, active means well fitted inhibition curve with a large enough effect; inconclusive means small, poorly fitted or top-dose-only effect; inactive means no such curve, though single readings can be large or run the other way.
Outcome codes: active, inactive

molecule=CCCCN1CCC(n2c(=O)[nH]c3ccccc32)CC1 label_class=inactive
molecule=COc1ccccc1CNCCCCCCNCCCCCCCCNCCCCCCNCc1ccccc1OC label_class=inactive
molecule=Ic1ccc(N2CCN(Cc3c[nH]c4ncccc34)CC2)cc1 label_class=inactive
molecule=NCCCCCCCCCCN label_class=inactive
molecule=NC(N)=NC(=O)c1nc(Cl)c(N2CCCCCC2)nc1N label_class=inactive
molecule=N#C/C(=C\c1c[nH]c2ccccc12)C(=O)c1ccc(O)c(O)c1 label_class=inactive
molecule=COc1cc(SC)ccc1C(=O)N1CCC(Cc2ccccc2)CC1 label_class=inactive
molecule=C[C@@H](CN1CCC(Cc2ccccc2)CC1)[C@@H](O)c1ccc(O)cc1 label_class=inactive
molecule=NC(=O)C(=O)O label_class=inactive
molecule="CN(C)CCC(c1ccc(Cl)cc1)c1ccccn1 (stereo not drawn)" label_class=inactive
molecule="O=C(O)CC1CCCc2ccccc2C1O (stereo not drawn)" label_class=inactive
molecule=C=CC(=O)c1ccc(CCCCCC)cc1 label_class=active
molecule=Brc1c(Br)c(Br)c2n[nH]nc2c1Br label_class=inactive

* * *

Tested on: Nanoluciferase (engineered Oplophorus gracilirostris luciferase)
assay.notes: Primary Nanoluciferase (NLuc) qHTS assay for identification of artifact compounds. (AID 1845222);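 further: NLuc secreted into diluted conditioned medium of S16 cells; 0% = DMSO and -100% = no enzyme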
test.settings: NLuc-conditioned medium, Nano-Glo luminescence, 5 min; series mostly up to 54.1 µM
Calls of active or inactive are those of the source. Calls follow the shape of the dose curve; as a rule, active = well fitted inhibition curve with a large enough effect; inconclusive = small, poorly fitted or top-dose-only effect; inactive = flat fitted curve, though single readings scatter.
measurement.label: activity, negative = inhibition

compound_structure_string=O=C(O)Cc1cccc(-c2cc(CCCCCCc3ccc(O[C@H]4O[C@H](CO)[C@@H](O)[C@H](O)[C@@H]4O)c(-c4cccc(CC(=O)O)c4)c3)ccc2O[C@H]2O[C@H](CO)[C@@H](O)[C@H](O)[C@@H]2O)c1 test_target="Nanoluciferase (engineered Oplophorus gracilirostris luciferase)" measurement_label="activity, negative = inhibition" result="3.7% [at 0.464 µM] (inactive)"
compound_structure_string=CC(=O)O[C@H]1C[C@@]2(C)[C@@H](C[C@@H](O)[C@H]3[C@@]4(C)CC[C@@H](O)[C@@H](C)[C@@H]4CC[C@@]32C)/C1=C(\CCC=C(C)C)C(=O)O test_target="Nanoluciferase (engineered Oplophorus gracilirostris luciferase)" measurement_label="activity, negative = inhibition" result=inactive
compound_structure_string=COc1cc(/C=C/C(=O)N2CCN(CC(=O)N3CCCC3)CC2)cc(OC)c1OC test_target="Nanoluciferase (engineered Oplophorus gracilirostris luciferase)" measurement_label="activity, negative = inhibition" result=inactive

* * *

test.target: D(1A) dopamine receptor (Homo sapiens) (UniProt P21728)
Sequence (P21728 whole entry, looked up): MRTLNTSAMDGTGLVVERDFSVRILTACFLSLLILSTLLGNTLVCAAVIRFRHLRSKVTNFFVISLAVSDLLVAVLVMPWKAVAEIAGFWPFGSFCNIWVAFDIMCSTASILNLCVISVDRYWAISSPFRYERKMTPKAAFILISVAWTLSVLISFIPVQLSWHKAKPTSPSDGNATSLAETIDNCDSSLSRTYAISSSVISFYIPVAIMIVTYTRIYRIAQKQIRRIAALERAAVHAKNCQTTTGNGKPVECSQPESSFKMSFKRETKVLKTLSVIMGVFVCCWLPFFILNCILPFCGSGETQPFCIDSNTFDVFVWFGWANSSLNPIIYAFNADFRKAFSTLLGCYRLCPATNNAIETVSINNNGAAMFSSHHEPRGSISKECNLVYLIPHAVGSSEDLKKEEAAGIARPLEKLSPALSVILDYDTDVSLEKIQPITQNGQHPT
assay.notes: HTS Assay for Allosteric Agonists of the Human D1 Dopamine Receptor: Primary Screen for Antagonists (AID 488983);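 further: calcium flux response to an EC80 dopamine challenge measured with no-wash dye; nearly all actives have a fitted effect of over 65% in size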
test.settings: D1 receptor cell assay, antagonist mode, qHTS titration; series mostly up to 41.8 µM
Results filed as inconclusive are left out. Activity calls are given as the source filed them. Calls follow the shape of the dose curve; as a rule, active = well fitted inhibition curve with a large enough effect; inconclusive = small, poorly fitted or top-dose-only effect, or effect the other way; inactive = flat fitted curve, though single readings scatter.
Classes used: label 1 (active), label 0 (inactive)

compound=O=P(O)(O)C(Cl)(Cl)P(=O)(O)O label_class="label 0"
compound=N=c1ccn2c(n1)O[C@H]1[C@H](O)[C@@H](CO)O[C@H]12 label_class="label 0"
compound="CCCCCC(O)c1cccc(OCc2ccc3ccccc3n2)c1 (stereo unspecified)" label_class="label 0"
compound=Oc1cc2c(cc1O)CN(C(=S)NCCc1ccc(Cl)cc1)CCC2 label_class="label 1"
compound=O=C1/C(=C/c2ccsc2)CC/C1=C\c1cccs1 label_class="label 0"
compound=Nc1nc(Nc2ccccc2)nc2c1ncn2[C@@H]1O[C@H](CO)[C@@H](O)[C@H]1O label_class="label 0"
compound=O=C(O)c1cc([N+](=O)[O-])ccc1NCCCc1ccccc1 label_class="label 0"
compound="O=C(O)/C=C/C(O)c1ccc(Cl)cc1 (stereo unspecified)" label_class="label 0"
compound=Cc1ccc(O)c(N=Nc2ccccc2)n1 label_class="label 0"
compound=CCNC(=O)[C@H]1O[C@@H](n2cnc3c(N)nc(NCCc4ccc(CCC(=O)O)cc4)nc32)[C@H](O)[C@@H]1O label_class="label 0"
compound=N[C@@H](CC(=O)O)C(=O)O label_class="label 0"
compound=Cc1cc2c(cc1Cl)N(C(=O)Nc1ccc(Oc3cccnc3C)nc1)CC2 label_class="label 1"
compound="NC(=S)c1ccc[n+]([C@@H]2O[C@@H](COP(=O)([O-])OP(=O)(O)OC[C@H]3O[C@@H](n4cnc5c(N)ncnc54)[C@H](OP(=O)(O)O)[C@@H]3O)C(O)C2O)c1 (stereo partly specified)" label_class="label 0"
compound=Fc1ccc(C(OCCCc2cnc[nH]2)c2ccc(F)cc2)cc1 label_class="label 0"
compound=CC[C@@H](C)[C@H]1O[C@]2(CC[C@H]1C)C[C@@H]1C[C@@H](CC=C(C)[C@@H](O[C@H]3C[C@H](OC)[C@@H](O[C@H]4C[C@H](OC)[C@@H](O)[C@H](C)O4)[C@H](C)O3)[C@@H](C)C=CC=C3CO[C@@H]4[C@H](O)C(C)=C[C@@H](C(=O)O1)[C@]34O)O2 label_class="label 0"
compound=NCCSSCCN label_class="label 0"
compound=CC1(C)CCC=[N+]1[O-] label_class="label 0"
compound=O=C(O)CC[C@@H](C(=O)O)N1C(=O)c2ccccc2C1=O label_class="label 0"
compound=CC(=O)SCC[N+](C)(C)C label_class="label 0"
compound=N#C/C(=C\c1ccc(O)c(O)c1)C(=O)NCc1ccccc1 label_class="label 0"
compound=O=C(O)c1cc(=O)c2c(Cl)cc(Cl)cc2[nH]1 label_class="label 0"

* * *

assay.notes: Cell Viability - LYMP2-025 (AID 976);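 further: cells exposed to compound for 24 h at 37 °C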
test.settings: LYMP2-025 lymphoblastoid cell viability; series mostly up to 92.2 µM
Inconclusive results are not listed. The source made the active and inactive calls. Calls follow the shape of the dose curve; as a rule, active = well fitted cell-killing curve with a large enough effect; inconclusive = small, poorly fitted or top-dose-only effect; inactive = flat fitted curve, though single readings scatter.
Classes used: active, inactive

compound=CN(C)c1ccc(N=NS(=O)(=O)O)cc1 label_class=inactive
compound=C#C[C@]1(O)CC[C@H]2[C@@H]3CCc4cc(O)ccc4[C@H]3CC[C@@]21C label_class=inactive
compound="CC(C)NCC(O)COc1cccc2ccccc12 (stereo unspecified)" label_class=inactive
compound=CN1CCC[C@H]1c1cccnc1 label_class=inactive
compound=COc1cc(CNC(=O)CCCC/C=C/C(C)C)ccc1O label_class=inactive
compound=O=C(O)/C=C\C(=O)O label_class=inactive
compound=O=c1cc(-c2ccccc2)oc2ccccc12 label_class=inactive
compound=NCCO label_class=inactive
compound=CN(C)c1ccc(C(=C2C=CC(=[N+](C)C)C=C2)c2ccccc2)cc1 label_class=active
compound=Nc1ccc([N+](=O)[O-])cc1O label_class=inactive
compound=COc1cc(/C=C/C(=O)CC(=O)/C=C/c2ccc(O)c(OC)c2)ccc1O label_class=active
compound=Nc1nc2ccc([N+](=O)[O-])cc2s1 label_class=inactive
compound="CN(C)CCC(c1ccc(Cl)cc1)c1ccccn1 (stereo unspecified)" label_class=inactive
compound=CCCCCCCCCCCCCCCCCC(=O)O label_class=inactive
compound=c1ccc2sc(SSc3nc4ccccc4s3)nc2c1 label_class=inactive
compound=Nc1ccc(O)c(C(=O)O)c1 label_class=inactive

* * *

Tested on: Tov-21-G
assay.notes: Primary qHTS to identify gynecologic anti-cancer compounds using libraries of approved drugs and bioactive compounds (AID 1345084); further: nearly all actives have a fitted effect of over 55% in size
test.settings: Gynecologic cancer cell panel viability, ATPlite luminescence, 48 h; series mostly up to 57.5 µM
Inconclusive results are not listed. The source made the active and inactive calls. Calls come from the whole dose curve; as a rule, active = well fitted cell-killing curve with a large enough effect; inconclusive = small, poorly fitted or top-dose-only effect, or effect the other way; inactive = flat fitted curve, though single readings scatter.
Outcomes: active, inactive

molecule=COc1ccc(-c2cc(=S)ss2)cc1 label_class=inactive
molecule=CCCCCCCCCCCC(=O)[O][Sn]([CH2]CCC)([CH2]CCC)[O]C(=O)CCCCCCCCCCC label_class=inactive
molecule=COC(=O)[C@H]1[C@H]2C[C@@H]3c4[nH]c5cc(OC)ccc5c4CCN3C[C@H]2C[C@@H](OC(=O)/C=C/c2cc(OC)c(OC)c(OC)c2)[C@@H]1OC label_class=inactive
molecule=Nc1ccc([N+](=O)[O-])cc1O label_class=inactive
molecule=COC(=O)Nc1nc2ccc(C(=O)C3CC3)cc2[nH]1 label_class=active
molecule=CN1CCN(c2cc3c(nn2)Oc2ccccc2N3C)CC1 label_class=inactive
molecule=O=[N+]([O-])c1ccc(CNc2nc(NCc3cccc(C(F)(F)F)c3)nc3nc[nH]c23)cc1 label_class=inactive
molecule=Fc1ccc2[nH]c(CN3CCN(c4ccccn4)CC3)cc2c1 label_class=inactive
molecule="CC(=O)SCC(CC(=O)c1ccc(C)cc1)C(=O)O (stereo unspecified)" label_class=inactive
molecule=Nc1ccc(O)c([N+](=O)[O-])c1 label_class=inactive
molecule=O=C(CS)Nc1ccccc1 label_class=inactive
